- Test system: P. falciparum stage V gametocytes
- Set-up: BacTiter-Glo ATP luminescence viability of purified stage V gametocytes in 384-well plates, per cent inhibition versus DMSO
- assay setup: 48 h, 5 µM; inhibitor
In all, about 13,000 compounds went through this assay and about 3,200 (25%) showed an effect of 50% or more. This is one part of the list.
readout kind: % Inhibition (%)
Entry rule: numbers only, all in %.

The cases that follow already have their % Inhibition on record.
CO/C(=C\C=C\c1cc2cc(Cl)c(Cl)cc2[nH]1)C(=O)NCCCN1CCN(c2cccc(CCCO)c2)CC1 = 14.82
Cc1ccc(NC(C)C(=O)Nc2ccccc2)cc1S(=O)(=O)N1CCCCCC1 (centres unmarked) = -63.29
CCNc1cc(C)nc(Nc2ccc(NC(=O)c3ccccc3Cl)cc2)n1 = -9.535
CCc1nc2nc(C)cc(Nc3ccc4c(c3)OCCO4)n2n1 = -0.3909
Cc1ccc2cc(NC(=O)c3cccc(C(=O)Nc4ccc5nc(C)ccc5c4)n3)ccc2n1 = -22.62

In: Return value of % Inhibition for input CNC(=O)CSc1nnc(-c2ccc(C)cc2)c(-c2ccc(C)cc2)n1 , no commentary.
Out: 5.321

In: Answer with the recorded % Inhibition for the molecule listed here: O=C(NCc1ccc(F)cc1)Nc1ccc(-c2ccc(-c3nc4ccccc4[nH]3)cc2)cc1
Out: -2.169

In: In one line, give reported % Inhibition of the entry CCCOc1cc(OCCC)cc(-c2ccc(C(=O)Nc3ccc4ccc(C)nc4c3)c(=O)[nH]2)c1 .
Out: 82.34
